Reference for the values: patent US10570099B2

- Experiment notes: Dog PK Study 1 (cross-over, fasted)
- Type: in vivo, beagle dogs
- Conditions: male, beagle, dog, po; plasma compound 1, fasted dogs (n = 3), capsule orally 24.5 mg/kg; median
Counter-ions that a name gives are not always drawn.
Readout kind: Tmax
Give the value; after it, write the unit.

For C=CC(=O)Nc1cccc(Nc2nc(Nc3ccc(N4CCN(C(C)=O)CC4)cc3OC)ncc2C(F)(F)F)c1 [Compound 2 (Form I Hydrobromide)] the molecule record lists Tmax as 2 h
